meta.source: patent US20160367557A1

# Tgt: influenza A virus (IAV) PA-Nter fragment (amino acids 1-209) (Influenza A virus, UniProt P31343)
Readout Name: IC50 (µM)
Respond numerically; units are µM and should not be typed.

| Smiles Input | Readout Name | Observed |
| --- | --- | --- |
| O=C(O)c1cn(Cc2ccccc2-c2ccccc2)c2sc(NS(=O)(=O)c3ccc(Cl)cc3)nc2c1=O | IC50 | 2.2 |

Moving on to another molecule below.
query: Query: IC50; subject: O=CNc1nc2c(=O)c(C(=O)O)cn(Cc3ccccc3-c3ccccc3)c2s1
result: 47

---

The entries below come with measured melting point values attached.

Here are 8 compounds together with their reported answers.
| Smiles Input | melting point |
| --- | --- |
| CCOC(=O)c1cn(CCc2ccc(O)cc2)c2cc(C3CC3)nn2c1=O | 95 to 100 °C |
| O=C(O)c1cn(CCc2ccc(C(F)(F)F)cc2)c2cc(C3CC3)nn2c1=O | 225 to 230 °C |
| CCOC(=O)Cc1c[nH]c2cc(-c3ccccc3)nn2c1=O | 245 to 250 °C |
| O=C(O)Cc1c[nH]c2nc(Nc3ccccc3)nn2c1=O | 279 to 281 °C |
| O=C(O)c1c[nH]c2nc(NCc3cccc4ccccc34)nn2c1=O | 245 to 250 °C |
| O=C(O)c1c[nH]c2nc(NCc3ccccc3)nn2c1=O | 240 to 245 °C |
| O=C(O)c1cn(CCc2ccccc2)c2cc(C3CC3)nn2c1=O | 185 to 190 °C |
| CCOC(=O)c1cn(CCc2cccc(C(F)(F)F)c2)c2cc(C3CC3)nn2c1=O | 140 to 145 °C |

query: Query: melting point; subject: CCOC(=O)c1cn(CCc2ccccc2)c2cc(C3CC3)nn2c1=O
result: 155 to 160 °C

query: Query: melting point; subject: CCOC(=O)c1c[nH]c2nc(Nc3ccc(C)c(Cl)c3)nn2c1=O
result: > 340 °C

query: Query: melting point; subject: O=C(NCCc1ccc(Cl)cc1)c1cc2[nH]cc(C(=O)O)c(=O)n2n1
result: > 300 °C

---

The entries below come with measured melting point values attached.

Here are 4 molecules together with their reported answers.
| Smiles Input | melting point |
| --- | --- |
| CCOC(=O)c1cn(CCCc2ccccc2)c2cc(C3CC3)nn2c1=O | 150 to 155 °C |
| O=C(O)c1cn(CCc2cccc(F)c2)c2cc(C3CC3)nn2c1=O | 220 to 225 °C |
| O=C(O)c1cn(Cc2ccccc2)c2cc(C3CCCC3)nn2c1=O | 213 to 215 °C |
| CCOC(=O)c1c[nH]c2nc(NCc3cccc4ccccc34)nn2c1=O | 273 to 275 °C |

query: Query: melting point; subject: O=C(O)c1cn(CCc2ccccc2)c2cc(C3CCCC3)nn2c1=O
result: 198 to 200 °C

query: Query: melting point; subject: CCOC(=O)c1cn(Cc2ccccc2)c2cc(C3CCCC3)nn2c1=O
result: 148 to 150 °C

query: Query: melting point; subject: CCOC(=O)c1cn(Cc2ccccc2)c2cc(C(C)C)nn2c1=O
result: 135 to 140 °C

query: Query: melting point; subject: O=C(O)c1cn(CCc2cccc(C(F)(F)F)c2)c2cc(C3CC3)nn2c1=O
result: 200 to 205 °C
